# ASSAYED SYSTEM: METTL15^70–407 (human METTL15, residues 70–407), wild type (human, UniProt A6NJ78 70-407)
# ASSAY INFO: ITC; Microcal PEAQ-ITC, 20 °C, buffer B (50 mM Na2HPO4, 150 mM NaCl, pH 7.0); hsRBFA 600 μM and METTL15 40 μM; single binding site model
# CONDITION SET: both partners purified
MEASURED ATTRIBUTE: Kd

The cases that follow already have their Kd on record.
GTTEPTTSSSLCGIDHEALAKQIMEYKRRKDKGLG (domain or fragment, human, UniProt Q8N0V3 226-260, looked up) [hsRBFA^226–260 N245A] | 610 nM
GTTEPTTSSSLCGIDHEALNKAIMEYKRRKDKGLG (domain or fragment, human, UniProt Q8N0V3 226-260, looked up) [hsRBFA^226–260 Q247A] | 410 nM

Next up:
Q. Requested field: Kd. Item: GTTEPTTSSSLCGIDHEALNKQIMEYARRKDKGLG (domain or fragment, human, UniProt Q8N0V3 226-260, looked up) [hsRBFA^226–260 K252A]
A. 19600 nM
